# assay_target: HCV NS5B (Hepatitis C virus genotype 1b, UniProt Q9WMX2)
# Construct: The cDNA encoding the NS5B protein of HCV, genotype 1b; made in house; host or cells: E. coli BL21(DE3)
# Sequence (Q9WMX2 2420-2992): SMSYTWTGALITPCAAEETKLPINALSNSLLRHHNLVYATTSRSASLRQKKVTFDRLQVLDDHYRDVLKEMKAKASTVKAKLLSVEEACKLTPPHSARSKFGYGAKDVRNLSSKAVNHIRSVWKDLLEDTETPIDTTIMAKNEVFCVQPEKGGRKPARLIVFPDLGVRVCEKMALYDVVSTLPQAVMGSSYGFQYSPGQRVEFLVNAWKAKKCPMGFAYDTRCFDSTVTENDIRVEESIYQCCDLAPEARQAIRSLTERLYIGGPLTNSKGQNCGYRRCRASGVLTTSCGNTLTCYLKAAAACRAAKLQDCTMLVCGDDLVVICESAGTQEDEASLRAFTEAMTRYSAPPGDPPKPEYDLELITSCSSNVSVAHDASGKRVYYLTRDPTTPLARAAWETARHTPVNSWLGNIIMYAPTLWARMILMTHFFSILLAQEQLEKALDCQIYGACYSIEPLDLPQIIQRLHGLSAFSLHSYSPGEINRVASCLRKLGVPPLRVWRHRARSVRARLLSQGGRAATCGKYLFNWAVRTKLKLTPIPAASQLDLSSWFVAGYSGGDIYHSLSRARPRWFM
# method_summary: Modified HCV NS5B RdRp enzyme assay (preincubation protocol)
# Type: biochemical
measured_endpoint: IC50

Here is how some compounds turned out for IC50.
>>> df
                            compound_string  measured_endpoint        test_result
0  COc1ccc2c(c1)C=C(c1ncccc1C(=O)N1C3CCC1CN(C)C3)Cn1c-2c(C2CCCCC2)c2ccc(C(=O)O)cc21               IC50  0.00458 to 0.5 µM
1  COc1ccc2c(c1)C=C(c1ncccc1S(=O)(=O)N1C3CCC1CN(C)C3)Cn1c-2c(C2CCCCC2)c2ccc(C(=O)O)cc21               IC50           > 0.5 µM
2  COc1ccc2c(c1)C=C(c1ccccc1C(=O)N1C3CCC1CN(C)C3)Cn1c-2c(C2CCCCC2)c2ccc(C(=O)OC(C)(C)C)cc21               IC50           > 0.5 µM

Attention now turns to another entry.
Request - read-out IC50 | tested on HCV NS5B (Hepatitis C virus genotype 1b, UniProt Q9WMX2) | compound `COc1ccc2c(c1)C=C(c1ncccc1C(=O)N1C3CCC1CN(C)C3)Cn1c-2c(C2CCCCC2)c2ccc(C(=O)NS(=O)(=O)N(C)C)cc21`
0.00458 to 0.5 µM

###

Reported IC50 values are given for each entry in this list.
# assay_target: HCV NS5B (Hepatitis C virus genotype 1b)
# Construct: The cDNA encoding the NS5B protein of HCV, genotype 1b; made in house; host or cells: E. coli BL21(DE3)
# method_summary: Modified HCV NS5B RdRp enzyme assay (preincubation protocol)
# Format: biochemical
# conditions: preincubation protocol; read-out: IC50

                                   molecule     test_result
0  COc1ccc2c(c1)CC(c1cccc(N3CCOCC3)n1)Cn1c-2c(C2CCCCC2)c2ccc(C(=O)NS(=O)(=O)N(C)C)cc21 (stereo not shown)  4.58 to 500 nM
1  COc1ccc2c(c1)CC(c1cccc(OCCN(C)C)c1)Cn1c-2c(C2CCCCC2)c2ccc(C(=O)NS(=O)(=O)C(C)C)cc21 (stereo not shown)  4.58 to 500 nM
2  COc1ccc2c(c1)C=C(c1ccccc1S(=O)(=O)N(C)CCN(C)C)Cn1c-2c(C2CCCCC2)c2ccc(C(=O)NS(=O)(=O)C(C)C)cc21  4.58 to 500 nM

Attention now turns to another entry.
Requested field: IC50. Item: `COc1ccc2c(c1)C=C(c1cccc(OCCN3CCOCC3)c1)Cn1c-2c(C2CCCCC2)c2ccc(C(=O)O)cc21`
4.58 to 500 nM

###

Reported pIC50 values are given for each entry in this list.
# assay_target: HCV NS5B (Hepatitis C virus genotype 1b, UniProt Q9WMX2)
# Construct: The cDNA encoding the NS5B protein of HCV, genotype 1b; made in house; host or cells: E. coli BL21(DE3)
# method_summary: Modified HCV NS5B RdRp enzyme assay (preincubation protocol)
# Assay type: biochemical
# Procedure: HCV NS5B RdRp cloning, expression, and purification. The cDNA encoding the NS5B protein of HCV, genotype 1b, was cloned into the pET21a expression vector. The protein was expressed with an 18 amino acid C-terminal truncation to enhance the solubility. […] Standard HCV NS5B RdRp enzyme assay. […] Plates were read on a Packard Top Count NXT after >1 hr incubation at room temperature. […] IC50 values for compounds were determined using seven different [I]. […]
pIC50: −log10 of the molar value.

Here is how some compounds turned out for pIC50.
                            compound_string  measured_endpoint   test_result
0  COc1ccc2c(c1)C=C(c1ccccc1C(=O)N1C3CCC1CN(C)C3)Cn1c-2c(C2CCCCC2)c2ccc(C(=O)O)cc21              pIC50  6.30 to 8.34
1  COc1ccc2c(c1)C=C(c1ncccc1S(=O)(=O)N1C3CCC1CN(C)C3)Cn1c-2c(C2CCCCC2)c2ccc(C(=O)NS(=O)(=O)N(C)C)cc21              pIC50  6.30 to 8.34

Requested field: pIC50. Item: `COc1ccc2c(c1)C=C(c1ccccc1C(=O)N1C3CCC1CN(C)C3)Cn1c-2c(C2CCCCC2)c2ccc(C(=O)NS(=O)(=O)C(C)C)cc21`
6.30 to 8.34
